// values below are reported Minimal inhibitory concentration (MIC)
Tested on: Escherichia coli
ASSAY COMMENT: MIC, liquid culture dilution (single chelates and cross-dilution combinations)
Assay type: cell-based
PROPERTY MEASURED: Minimal inhibitory concentration (MIC) (ppm)

- C[C@H](N)C(=O)[O-].C[C@H](N)C(=O)[O-].O.[Zn+2] [Zn(H2O) bis-alaninate]: 100
- CCC(=O)[O-].CCC(=O)[O-].O.[Zn+2] [Zn(H2O) bis-propionate]: 160
- NCC(=O)[O-].NCC(=O)[O-].O.[Cu+2] [Copper (H2O) bis-glycinate]: 300
- N.N.NC(CC(=O)O)C(=O)[O-].NC(CC(=O)O)C(=O)[O-].[Zn+2] (centres unmarked) [Zn diammine bis-aspartate]: 123
- NC(CCC(=O)[O-])C(=O)[O-].[Zn+2] (centres unmarked) [Zn mono-glutamate]: 70
- [NH2][Zn]([NH2])([O]C(=O)C(O)CC(=O)O)[O]C(=O)C(O)CC(=O)O (centres unmarked) [Zn diammine bis-malate, Zn diammonium malate]: 80
- CCCCC(=O)[O-].CCCCC(=O)[O-].O.[Zn+2] [Zn(H2O) bis-valerianate]: 120
- O=C([O-])CN(CC(=O)[O-])CC(=O)O.[Zn+2] [Zn nitrolotriacetate]: 40
- NCC(=O)O.O=S(=O)([O-])[O-].[Zn+2] [Zinc mono-glycinate, zinc mono-glycinate chelate]: 100
- N[C@@H](CC(=O)[O-])C(=O)[O-].[Zn+2] [Zn mono-aspartate]: 74
- NC(=O)CC(N)C(=O)[O][Cu]([NH3+])([NH3+])[O]C(=O)C(N)CC(N)=O (centres unmarked) [Cu diammine bis-asparaginate]: 1025

====

Test system: Salmonella enterica
ASSAY COMMENT: MIC, liquid culture dilution (single chelates and cross-dilution combinations)
Format: cell-based, Salmonella enterica subp. Enterica serovar enteritidis
PROPERTY MEASURED: Minimal inhibitory concentration (MIC) (ppm)

- NCC(=O)O.O=S(=O)([O-])[O-].[Zn+2] [Zinc mono-glycinate, zinc mono-glycinate chelate]: 100
- N.N.NC(CC(=O)O)C(=O)[O-].NC(CC(=O)O)C(=O)[O-].[Zn+2] (centres unmarked) [Zn diammine bis-aspartate]: 247
- O.O=C(O)CC(O)C(=O)[O-].O=C(O)CC(O)C(=O)[O-].[Cu+2] (centres unmarked) [Cu(H2O) bis-malate]: 210
- CCCC(=O)[O-].CCCC(=O)[O-].O.[Zn+2] [Zn(H2O) bis-butyrate]: 110
- O=C(O)CC(O)C(=O)[O-].O=C(O)CC(O)C(=O)[O-].[Zn+2] (centres unmarked) [Zn bis-malate]: 360
- [NH2][Zn]([NH2])([O]C(=O)C(O)CC(=O)O)[O]C(=O)C(O)CC(=O)O (centres unmarked) [Zn diammine bis-malate, Zn diammonium malate]: 120

====

Tested on: Escherichia coli
ASSAY COMMENT: MIC, liquid culture dilution (single chelates and cross-dilution combinations)
Type: cell-based
PROPERTY MEASURED: Minimal inhibitory concentration (MIC) (ppm)

• O=C(O)CC(O)C(=O)[O-].O=C(O)CC(O)C(=O)[O-].[Zn+2] (stereo not shown) [Zn bis-malate] = 280
• [NH3+][Cu]([NH3+])([O]C(=O)C(O)CC(=O)O)[O]C(=O)C(O)CC(=O)O (stereo not shown) [Cu diammine bis-malate] = 262
• O.O=C(O)CC(O)C(=O)[O-].O=C(O)CC(O)C(=O)[O-].[Cu+2] (stereo not shown) [Cu(H2O) bis-malate] = 120
• CCCC(=O)[O-].CCCC(=O)[O-].O.[Zn+2] [Zn(H2O) bis-butyrate] = 110

====

Tested on: Streptococcus agalactiae
ASSAY COMMENT: MIC, liquid culture dilution
Format: cell-based
Quick rule for you: Minimal inhibitory concentration (MIC) at 20 ppm or higher means t, lower means f.

* [NH3+][Cu]([NH3+])([O]C(=O)C(O)CC(=O)O)[O]C(=O)C(O)CC(=O)O (stereo not shown) [Cu diammine bis-malate] | t
* NC(=O)CC(N)C(=O)[O][Cu]([NH3+])([NH3+])[O]C(=O)C(N)CC(N)=O (stereo not shown) [Cu diammine bis-asparaginate] | f
* NC(CCC(=O)[O-])C(=O)[O-].[Zn+2] (stereo not shown) [Zn mono-glutamate] | f
* NCC(=O)O.O=S(=O)([O-])[O-].[Zn+2] [Zinc mono-glycinate, zinc mono-glycinate chelate] | t
* N.N.NC(CCC(=O)O)C(=O)[O-].NC(CCC(=O)O)C(=O)[O-].[Zn+2] (stereo not shown) [Zn diammine bis-glutamate] | t
* NC(=O)C[C@H](N)C(=O)[O-].NC(=O)C[C@H](N)C(=O)[O-].[Zn+2] [Zn bis-asparaginate] | t
* NC(Cc1cnc[nH]1)C(=O)[O-].NC(Cc1cnc[nH]1)C(=O)[O-].[Zn+2] (stereo not shown) [Zn bis-histidinate] | f

====

// values below are reported Minimal inhibitory concentration (MIC)
System: Escherichia coli
ASSAY COMMENT: MIC, liquid culture dilution (single chelates and cross-dilution combinations)
Type: cell-based
PROPERTY MEASURED: Minimal inhibitory concentration (MIC)

• O=C([O-])c1ccccc1.O=C([O-])c1ccccc1.[Zn+2] [Zn bis-benzoate] = >4000 ppm
• NC(Cc1cnc[nH]1)C(=O)[O-].NC(Cc1cnc[nH]1)C(=O)[O-].[Zn+2] (stereo not drawn) [Zn bis-histidinate] = >4000 ppm
• O=C(O)c1ccccc1[O-].O=C(O)c1ccccc1[O-].[Zn+2] [Zn bis-salycilate] = >4000 ppm
